test_system: T1, mutated human c-MET antigen with murine membrane-distal epitopes (extracellular domains fused to a truncated … (human/murine chimera))
T1 construct: also called cMET-10
T1 chain: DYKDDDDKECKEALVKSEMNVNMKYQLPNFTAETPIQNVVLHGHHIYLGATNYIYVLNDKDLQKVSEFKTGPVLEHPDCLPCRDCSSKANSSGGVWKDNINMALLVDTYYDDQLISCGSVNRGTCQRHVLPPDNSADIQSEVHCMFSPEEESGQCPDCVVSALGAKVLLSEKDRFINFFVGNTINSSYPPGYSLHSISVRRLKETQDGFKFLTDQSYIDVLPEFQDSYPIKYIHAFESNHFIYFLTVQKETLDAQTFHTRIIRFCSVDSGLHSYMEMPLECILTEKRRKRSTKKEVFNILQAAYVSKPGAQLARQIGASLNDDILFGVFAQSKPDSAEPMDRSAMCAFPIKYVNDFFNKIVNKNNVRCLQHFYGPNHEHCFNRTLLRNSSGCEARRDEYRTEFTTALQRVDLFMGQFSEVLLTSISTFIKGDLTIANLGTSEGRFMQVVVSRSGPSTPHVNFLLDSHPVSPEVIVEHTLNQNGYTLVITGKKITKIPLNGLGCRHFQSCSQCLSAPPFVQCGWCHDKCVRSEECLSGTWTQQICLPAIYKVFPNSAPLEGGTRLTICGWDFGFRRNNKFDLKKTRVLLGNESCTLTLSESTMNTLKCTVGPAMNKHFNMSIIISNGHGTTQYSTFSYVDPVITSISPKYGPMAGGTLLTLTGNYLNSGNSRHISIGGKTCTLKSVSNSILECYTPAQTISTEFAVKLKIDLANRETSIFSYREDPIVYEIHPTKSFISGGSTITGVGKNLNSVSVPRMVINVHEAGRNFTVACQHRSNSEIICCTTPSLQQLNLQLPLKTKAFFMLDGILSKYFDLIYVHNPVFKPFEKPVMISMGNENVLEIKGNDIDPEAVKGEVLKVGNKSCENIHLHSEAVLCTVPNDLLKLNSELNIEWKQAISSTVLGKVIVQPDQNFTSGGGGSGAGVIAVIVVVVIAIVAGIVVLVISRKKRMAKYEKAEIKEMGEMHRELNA
experiment: FACS, CHO transfectants, periplasmic preparation
observation_type: binding result

1) ME05B7HL (scFv, murine anti-c-MET scFv; E. coli periplasmic preparation) scFv: EVQLLEQSGAELVRPGTSVKISCKTTGYTFGYYWISWLKQRPGHGLEWIGDIYPGGGYTNYHEKFKGKVTLTADTSSRTAYMQLSSLTFEDSAIYYCARSGYDYGSDYDYHGMDYWGQGTTVTVSSGGGGSGGGGSGGGGSELVMTQTPSSLSASLGDRVTISCRASQGISNYLNWYQQKPDGSVKLLIYYTSRLHSGVPSRFSGSGSGTDYSLTISNLDQEDIATYFCQQGNTLPWTFGGGTKLEIKTGDYKDDDDKHHHHHH	binds
2) ME05F6HL (scFv, murine anti-c-MET scFv; E. coli periplasmic preparation) scFv: EVQLLEQSGAEVVRPGTSVKMSCKAAGYTFTKYWIGWVKQRPGHGLEWIGDIHPGGGFANYNEKFKGKATLTADTSSSTAYMQLSRLTSDDSAIYYCARSGYDYGSSYDYHGMDYWGQGTTVTVSSGGGGSGGGGSGGGGSELVMTQSPSSLSASLGERVSLTCRASQEISGYLSWLQQKPDGTIKRLIYAASTLDSGVPKRFSGSRSGSDYSLTISSLESEDFADYYCLQYASYPPTFGGGTKLEIKTGDYKDDDDKHHHHHH	binds
